Test system: mouse propionibactrium acnes (P. acnes)-lipopolysaccharide (LPS)-induced fulminant hepatitis model
Test: mouse P. acnes-lipopolysaccharide (LPS)-induced fulminant hepatitis model
Type: in vivo, male Balb/c mice
Details: plasma GPT of survivors 24 hours after LPS; 100 mg/kg oral, value is test group
Readings of GPT (survival rate), test compd. group (%) [part 1] for the listed molecules
Reply numerically in %, unit not repeated.

Some solved cases for reference:
entry-smiles	observed-result
COC1=C(/C=C(\CC2CCCCC2)C(=O)O)C(=O)C(OC)=C(OC)C1=O	209
CCOC1=C(OC)C(=O)C(C)=C(/C=C(\CC2CCCCC2)C(=O)O)C1=O	381
CCCCC/C(=C\c1c(C)c(O)c(OCC)c(OCC)c1OCC)C(=O)O	293
CCCCCCCCC/C(=C\C1=C(C)C(=O)C(OC)=C(OC)C1=O)C(=O)O	358
CCOc1c(O)c(C)c(/C=C(\Cc2ccccc2)C(=O)O)c(OCC)c1OCC	1009

Req: Answer with the recorded GPT (survival rate), test compd. group (%) [part 1] for the molecule listed here: "COc1c(O)c(C)c(/C=C(\C(=O)O)c2ccccc2)c(OC)c1OC"
Resp: 297

Req: Answer with the recorded GPT (survival rate), test compd. group (%) [part 1] for the molecule listed here: "CCOC1=C(OCC)C(=O)C(/C=C(\CC2CCCCC2)C(=O)O)=C(C)C1=O"
Resp: 280
